Source: ChEMBL document CHEMBL4665642

# Test system: TK-10
# assay comment: Cytotoxicity against human TK-10 cells assessed as cell viability at 10 uM incubated for 48 hrs by sulforhodamine B assay relative to control
# Format: functional
# reported conditions: read-out: Activity
# viability at 10 µM values compiled below
endpoint: viability at 10 µM (%)

[[record]]
structure_smiles_string = "O=S(=O)(NCCCNc1nccc(-c2c(-c3cccc(F)c3)nc3sccn23)n1)c1ccc(F)cc1"
system_name = "TK-10"
endpoint = "viability at 10 µM"
endpoint_result = 99.7

[[record]]
structure_smiles_string = "O=C(NCCNc1nccc(-c2c(-c3cccc(F)c3)nc3sccn23)n1)c1ccccc1"
system_name = "TK-10"
endpoint = "viability at 10 µM"
endpoint_result = 73

[[record]]
structure_smiles_string = "O=C(NCCNc1nccc(-c2c(-c3cccc(F)c3)nc3sccn23)n1)C1CCCCC1"
system_name = "TK-10"
endpoint = "viability at 10 µM"
endpoint_result = 88.6

[[record]]
structure_smiles_string = "O=S(=O)(NCCNc1nccc(-c2c(-c3cccc(F)c3)nc3sccn23)n1)c1ccccc1"
system_name = "TK-10"
endpoint = "viability at 10 µM"
endpoint_result = 59.5

[[record]]
structure_smiles_string = "O=S(=O)(NCCNc1nccc(-c2c(-c3cccc(F)c3)nc3sccn23)n1)c1cccc(F)c1"
system_name = "TK-10"
endpoint = "viability at 10 µM"
endpoint_result = 88

[[record]]
structure_smiles_string = "O=C(NCCCNc1nccc(-c2c(-c3cccc(F)c3)nc3sccn23)n1)c1ccc(C(F)(F)F)cc1"
system_name = "TK-10"
endpoint = "viability at 10 µM"
endpoint_result = 74

[[record]]
structure_smiles_string = "O=C(NCCNc1nccc(-c2c(-c3cccc(F)c3)nc3sccn23)n1)c1ccc(C(F)(F)F)cc1"
system_name = "TK-10"
endpoint = "viability at 10 µM"
endpoint_result = 86.1

[[record]]
structure_smiles_string = "O=S(=O)(NCCCNc1nccc(-c2c(-c3cccc(F)c3)nc3sccn23)n1)c1ccccc1"
system_name = "TK-10"
endpoint = "viability at 10 µM"
endpoint_result = 92.8

[[record]]
structure_smiles_string = "O=S(=O)(NCCNc1nccc(-c2c(-c3cccc(F)c3)nc3sccn23)n1)c1ccc(C(F)(F)F)cc1"
system_name = "TK-10"
endpoint = "viability at 10 µM"
endpoint_result = 98.2

[[record]]
structure_smiles_string = "O=S(=O)(NCCCNc1nccc(-c2c(-c3cccc(F)c3)nc3sccn23)n1)c1ccc(C(F)(F)F)cc1"
system_name = "TK-10"
endpoint = "viability at 10 µM"
endpoint_result = 107

[[record]]
structure_smiles_string = "O=S(=O)(NCCCNc1nccc(-c2c(-c3cccc(F)c3)nc3sccn23)n1)c1ccc(O)cc1"
system_name = "TK-10"
endpoint = "viability at 10 µM"
endpoint_result = 87.6

[[record]]
structure_smiles_string = "O=S(=O)(NCCNc1nccc(-c2c(-c3cccc(F)c3)nc3sccn23)n1)c1ccc(Cl)cc1"
system_name = "TK-10"
endpoint = "viability at 10 µM"
endpoint_result = 88.5

[[record]]
structure_smiles_string = "O=C(NCCCNc1nccc(-c2c(-c3cccc(F)c3)nc3sccn23)n1)C1CCCCC1"
system_name = "TK-10"
endpoint = "viability at 10 µM"
endpoint_result = 78.9

[[record]]
structure_smiles_string = "O=C(NCCNc1nccc(-c2c(-c3cccc(F)c3)nc3sccn23)n1)c1ccc(Cl)cc1"
system_name = "TK-10"
endpoint = "viability at 10 µM"
endpoint_result = 75.4

[[record]]
structure_smiles_string = "O=S(=O)(NCCCNc1nccc(-c2c(-c3cccc(F)c3)nc3sccn23)n1)c1cccc2ccccc12"
system_name = "TK-10"
endpoint = "viability at 10 µM"
endpoint_result = 71.7

